Reference source for all entries: patent US20260167714A1

Molecular target: T1, recombinant human ILT4 (LILRB2) (human, UniProt Q8N423 22-460)
T1 construct: Bought protein (Acro Biosystems or R&D Systems); also called ILTR4
T1 sequence (Q8N423 other isoform, or with tags, fused parts or gaps limits assumed): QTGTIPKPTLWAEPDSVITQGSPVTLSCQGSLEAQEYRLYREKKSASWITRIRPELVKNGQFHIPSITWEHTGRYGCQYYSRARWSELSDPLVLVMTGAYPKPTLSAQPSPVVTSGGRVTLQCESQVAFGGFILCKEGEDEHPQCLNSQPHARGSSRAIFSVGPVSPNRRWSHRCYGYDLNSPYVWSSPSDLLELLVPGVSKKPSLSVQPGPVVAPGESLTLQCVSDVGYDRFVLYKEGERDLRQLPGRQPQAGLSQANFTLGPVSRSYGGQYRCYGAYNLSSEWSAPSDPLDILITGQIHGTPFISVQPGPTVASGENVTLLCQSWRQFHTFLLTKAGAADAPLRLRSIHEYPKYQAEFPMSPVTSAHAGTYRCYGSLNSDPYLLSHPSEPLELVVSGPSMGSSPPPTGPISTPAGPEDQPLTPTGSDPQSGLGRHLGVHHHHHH
Experiment: SPR, Biacore T200, medium resolution; koff held at its limit of 4.27e-5 s^-1
pKd: −log10 of the molar value.
Recorded measurements of pKd, one per entry

- BINDER: "Chimeric 77 (antibody, V domains shown, Chimeric form of L77S2) VH: DVQLQQSGPELVKPGNSVKISCKAAGYSFTGYSVNWVKERHGKSLEWIGRINPYNGDIFNNQKFKGKATLTVDKSSSTAHMELRSLTSEDSAVYYCARGTTVGGAWFAYWGQGTLVTVSA VL: VIVLTQSPASLAVSLGQRAAISCRASESVDSYGYSFLHWYQQKPGQPPKLLIYLASNLESGIPARFSGSGSGTDFTLTINPVEADDVATYYCQQSNEDLMYTFGGGTKLEIK"
  pKd: "≥ 10.23"
- BINDER: "Hz180-LALA (antibody, human IgG1, kappa, L234A L235A, V domains shown, Humanized L180S4, human IgG1 L234A/L235A, kappa; also called Humanized 180_04; Hz 180 04) VH: QVQLVQSGAEVKKPGSSVKVSCKASGYSFIGYFMNWMRQAPGQGLEWIGRINPYNGDIFYNQKFKGRVTITVDKSTSTAYMELSSLRSEDTAVYYCARGITVAAGSFDVWGQGTTVTVSS VL: DIVMTQSPDSLAVSLGERATINCRASESVDNYGNTFMHWYQQKPGQPPKLLIYRASNLESGIPDRFSGSGSGTDFTLTISSLQAEDVAVYYCQQSSDHPLTFGGGTKVEIKR"
  pKd: "≥ 10.28"

**Query** Look up and report measured pKd for this entry: Chimeric 156 (antibody, V domains shown, Chimeric form of L156S3) VH: QVQLKQSGAELVRPGASVKLSCRASGYTFTDYYMNWVKQRPGQGLEWIARIYPGVYRTHYNEKFKDKATLTAEKSSSTAYMELSSLTSEDSAVYFCARSGYYGGTYEEDAMDYWGQGTSVTVSS VL: DIQMTQSPASLSVSVGETVTITCRASENIYSNLAWYQQKQGKSPQLLVYAATSLADGVPSRFRGSGSGTQYSLKISSLQSEDFGNYYCQNFWDTPYTFGGGTKLEIK
**Result** ≥ 9.94
